Molecular target: T1, recombinant human Trop-2-his protein (ACCESSION NO.: NP_002344.2, AA 1-274) (human, UniProt P09758 27-274)
T1 construct: range 27-274; also called recombinant human Trop-2 protein; recombinant human Trop-2 extracellular domain; not shown: his tag
T1 sequence (looked up): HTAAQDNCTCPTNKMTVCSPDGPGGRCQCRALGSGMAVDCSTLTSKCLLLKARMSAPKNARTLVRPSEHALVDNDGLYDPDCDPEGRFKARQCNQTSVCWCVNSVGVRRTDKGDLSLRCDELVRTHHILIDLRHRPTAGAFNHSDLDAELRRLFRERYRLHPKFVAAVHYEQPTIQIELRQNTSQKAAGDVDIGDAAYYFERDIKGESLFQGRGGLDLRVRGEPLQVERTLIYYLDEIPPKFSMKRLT
Experiment: BLI, antibody on AHC sensor, Trop-2-his 60 nM
pKd: −log10 of the molar value.
measuredQuantity: pKd

binder: h4-3-4 (antibody, human IgG1, kappa, V domains shown) VH: EVQLVQSGPEVKKPGASVKVSCKASGFTFTDYVIGWVRQAPGQGLEWIGEIYLGSGTIYYTEKFKGRVTMTADTSTSTAYMELSSLRSEDTAVYYCARGSIFYFDYWGQGTLVTVSS VL: DIQLTQSPSSLSASVGDRVTITCSASSSVSYMYWYQQKPGKAPKLLIYDTSTLASGVPSRFSGSGSGTDFTLTISSLQPEDFATYYCQQWSSYPYTFGQGTKLEIKR
obsValue: 9.20
--
binder: h4-3-16 (antibody, human IgG1, kappa, V domains shown) VH: EVQLVQSGPEVKKPGASVKVSCKASGFTFTDYVIGWVRQAPGQGLEWIGEIYLGSGTIYYTEKFKGRVTMTADTSTSTAYMELSSLRSEDTAVYYCARGSIFYFDYWGQGTLVTVSS VL: DIQLTQSPSSLSASVGDRVTITCSASSSVSYMYWYQQKPGKAPKLLIYDTSTLQSGVPSRFSGSGSGTDFTLTISSLQPEDFATYYCQQWSSYPYTFGQGTKLEIKR
obsValue: 8.82
--
binder: h4-3-13 (antibody, human IgG1, kappa, V domains shown) VH: EVQLVQSGPEVKKPGASVKVSCKASGFTFTDYVIGWVRQAPGQGLEWIGEIYLGSGTIYYTEKFKGRVTMTADTSTSTAYMELSSLRSEDTAVYYCARGSIFPFDYWGQGTLVTVSS VL: DIQLTQSPSSLSASVGDRVTITCSASSSVSYMYWYQQKPGKAPKLLIYDTSTLQSGVPSRFSGSGSGTDFTLTISSLQPEDFATYYCQQWSSYPYTFGQGTKLEIKR
obsValue: 9.55
